# Tested on: AN3-CA (Endometrial Carcinoma)
# procedure_summary: combination Emax (second highest fraction inhibited in the dose matrix, 72 h); higher = more inhibition; extreme values may be limits of the assay
measurement_type: combination Emax

• COc1nnc2ccc(N3CCC(c4ccc(OCCN5CCN(C)C(=O)[C@H]5C)cc4)CC3)nn12 [AZD5153] + C[C@@H]1COCCN1C2=NC(=NC(=C2)C3(CC3)[S@](=N)(=O)C)C4=C5C=CNC5=NC=C4 [AZD6738] (first compound max 1 µM, 7x7, partner max 10 µM) = 0.55

Exercise: State the recorded combination Emax for this entry: COc1nnc2ccc(N3CCC(c4ccc(OCCN5CCN(C)C(=O)[C@H]5C)cc4)CC3)nn12 [AZD5153] + CCN(CCO)CCCOc1ccc2c(Nc3cc(CC(=O)Nc4cccc(F)c4)[nH]n3)ncnc2c1 [AZD2811] (first compound max 1 µM, 7x7, partner max 1 µM)
Key: 0.297
